Where do the numbers come from? From PubChem BioAssay AID2060493.

Can you tell me pIC50 for the items I'm about to list?
Tested on: 616215-338-R-J1-PDC tumor spheroids, viability
Experimental Details: Anticancer human tumor 616215-338-R-J1-PDC patient-derived colon adenocarcinoma cell line growth inhibition [GQUAD]
Setup Conditions: curve of first compound; second compound 3.16 µM; spheroids with HUVEC and MSC
pIC50: −log10 of the molar value.

Reported pIC50, compound CC[C@@]1(O)C(=O)OCc2c1cc1n(c2=O)Cc2cc3c(CN(C)C)c(O)ccc3nc2-1 + CN(C)c1ccc(Nc2c3ccc(NC(=O)CCN4CCCC4)cc3nc3cc(NC(=O)CCN4CCCC4)ccc23)cc1 : ____
6.58

Repeat with O=c1[nH]cc(F)c(=O)[nH]1 + Cc1cnc(CNC(=O)c2c(=O)c3ccc(N4CCCN(C)CC4)nc3n3c2sc2ccccc23)cn1
> 7.50

Repeat with Cc1cccc(N(C)C(=O)C2C(O)CCN2c2nc(C)cc(C(F)(F)F)c2C#N)c1 (stereo not drawn) + Cc1[nH]c2ccc(F)cc2c1-c1nc2c3cccnc3c3ncccc3c2[nH]1
< 5.00

###

Can you tell me viability, T/C for the items I'm about to list?
Test system: 616215-338-R-J1-PDC tumor spheroids, viability
Experimental Details: Anticancer human tumor 616215-338-R-J1-PDC cell line growth inhibition [GQUAD];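 also: spheroids exposed to agents for 7 days before readout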;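 as to viability, T/C: percent viability relative to DMSO vehicle control wells taken as 100%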
Setup Conditions: second compound 0.316 µM; first compound 1 µM; stronger effect = lower value; spheroids with HUVEC and MSC
Provide the reading as a plain figure in %.

Reported viability, T/C, molecule O=c1[nH]cc(F)c(=O)[nH]1 + Cc1cnc(CNC(=O)c2c(=O)c3ccc(N4CCCN(C)CC4)nc3n3c2sc2ccccc23)cn1 : ____
36.1

Repeat with COc1cccc2c1C(=O)c1c(O)c3c(c(O)c1C2=O)CC(O)(C(=O)CO)CC3OC1CC(N)C(O)C(C)O1 (stereo unspecified) + Cc1[nH]c2ccc(F)cc2c1-c1nc2c3cccnc3c3ncccc3c2[nH]1
49

Repeat with CC(C)(O)C1CCC(Nc2ccc3ncc(-c4cccc(C(F)(F)F)c4)n3n2)CC1 (stereo unspecified) + Cc1[nH]c2ccc(F)cc2c1-c1nc2c3cccnc3c3ncccc3c2[nH]1
11.7

Repeat with CC1COCCN1c1cc(C2(O)CC3CCC(C2)O3)c2cnn(-c3ccn[nH]3)c2n1 (stereo unspecified) + Cc1[nH]c2ccc(F)cc2c1-c1nc2c3cccnc3c3ncccc3c2[nH]1
40

Repeat with CCCS(=O)(=O)Nc1ccc(F)c(C(=O)c2c[nH]c3ncc(-c4ccc(Cl)cc4)cc23)c1F + Cc1[nH]c2ccc(F)cc2c1-c1nc2c3cccnc3c3ncccc3c2[nH]1
98

Repeat with C=CC(=O)N1CCN(c2nc(=O)n(-c3c(C)ccnc3C(C)C)c3nc(-c4c(O)cccc4F)c(F)cc23)C(C)C1 (stereo unspecified) + CN(C)c1ccc(Nc2c3ccc(NC(=O)CCN4CCCC4)cc3nc3cc(NC(=O)CCN4CCCC4)ccc23)cc1
103

Repeat with COc1cc(C2c3cc4c(cc3C(OC3OC5COC(C)OC5C(O)C3O)C3COC(=O)C23)OCO4)cc(OC)c1O (stereo unspecified) + Cc1[nH]c2ccc(F)cc2c1-c1nc2c3cccnc3c3ncccc3c2[nH]1
47

Repeat with CC1COCCN1c1cc(-c2ccnn2C)c2ccnc(-c3ccn[nH]3)c2n1 (stereo unspecified) + CN(C)c1ccc(Nc2c3ccc(NC(=O)CCN4CCCC4)cc3nc3cc(NC(=O)CCN4CCCC4)ccc23)cc1
23.1

Repeat with COc1cc(C2c3cc4c(cc3C(OC3OC5COC(C)OC5C(O)C3O)C3COC(=O)C23)OCO4)cc(OC)c1O (stereo unspecified) + CN(C)c1ccc(Nc2c3ccc(NC(=O)CCN4CCCC4)cc3nc3cc(NC(=O)CCN4CCCC4)ccc23)cc1
41

Repeat with CC1COCCN1c1cc(-c2ccnn2C)c2ccnc(-c3ccn[nH]3)c2n1 (stereo unspecified) + Cc1cnc(CNC(=O)c2c(=O)c3ccc(N4CCCN(C)CC4)nc3n3c2sc2ccccc23)cn1
28.5

Repeat with Nc1ccn(C2OC(CO)C(O)C2(F)F)c(=O)n1 (stereo unspecified) + Cc1[nH]c2ccc(F)cc2c1-c1nc2c3cccnc3c3ncccc3c2[nH]1
13.9
